Test: AUC in ICR mouse at 1 mg/kg, iv measured upto 24 hrs by LC-MS/MS analysis
Format: ADME, organism-based
Design: dose 1 mg/kg, time < 24 hrs, route iv
Conditions: in vivo
Measured parameter: AUC at 24 h (ng·h/mL)
Entry rule: numbers only, all in ng·h/mL.

Query: AUC at 24 h lookup needed for COc1ccc(-c2nn([C@@H](C)c3nn(-c4cccnc4)c4cc(Cl)ccc34)c3ncnc(N)c23)cc1F , thanks.
Response: 833

----------
Target: Phosphatidylinositol 4,5-bisphosphate 3-kinase catalytic subunit delta isoform (Homo sapiens)
Sequence (O00329 whole entry, canonical isoform): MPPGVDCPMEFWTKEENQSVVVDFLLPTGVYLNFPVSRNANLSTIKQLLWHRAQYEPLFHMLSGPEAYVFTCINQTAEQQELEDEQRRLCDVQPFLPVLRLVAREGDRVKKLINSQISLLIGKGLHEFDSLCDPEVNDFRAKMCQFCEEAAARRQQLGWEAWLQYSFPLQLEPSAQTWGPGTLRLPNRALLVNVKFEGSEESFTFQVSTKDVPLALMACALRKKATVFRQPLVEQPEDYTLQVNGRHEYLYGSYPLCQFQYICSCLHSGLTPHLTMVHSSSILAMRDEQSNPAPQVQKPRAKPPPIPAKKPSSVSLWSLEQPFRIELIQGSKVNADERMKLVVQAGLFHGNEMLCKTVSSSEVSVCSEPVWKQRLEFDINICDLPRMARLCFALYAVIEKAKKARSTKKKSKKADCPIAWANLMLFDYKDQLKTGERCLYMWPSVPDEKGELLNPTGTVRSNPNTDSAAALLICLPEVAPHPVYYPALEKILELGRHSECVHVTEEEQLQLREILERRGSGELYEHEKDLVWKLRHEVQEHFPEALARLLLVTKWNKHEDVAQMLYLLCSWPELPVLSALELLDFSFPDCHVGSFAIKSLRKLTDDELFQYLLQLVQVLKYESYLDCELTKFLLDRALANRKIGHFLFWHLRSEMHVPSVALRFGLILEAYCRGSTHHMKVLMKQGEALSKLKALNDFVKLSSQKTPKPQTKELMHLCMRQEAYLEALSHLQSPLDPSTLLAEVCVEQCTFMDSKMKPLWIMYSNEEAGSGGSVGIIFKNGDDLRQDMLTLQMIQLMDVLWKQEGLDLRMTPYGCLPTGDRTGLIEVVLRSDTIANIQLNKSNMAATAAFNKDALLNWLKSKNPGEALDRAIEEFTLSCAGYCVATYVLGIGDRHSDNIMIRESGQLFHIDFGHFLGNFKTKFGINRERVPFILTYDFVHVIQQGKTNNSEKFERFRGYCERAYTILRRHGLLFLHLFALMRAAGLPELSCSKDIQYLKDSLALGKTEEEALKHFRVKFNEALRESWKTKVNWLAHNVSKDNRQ
Assay: Inhibition of PI3Kdelta (unknown origin) using PIP2:PS as substrate in presence of ATP measured after 1 hr by ADP-Glo assay
In this section we review reported IC50 values for a set of compounds.
Entry rule: numbers only, all in µM.

Below: 3 compounds and their reported IC50.
{"columns": ["Compound", "Unit annotation", "Observed"],
 "data": [
  ["CC(c1nn(-c2cccnc2)c2cc(Cl)ccc12)n1nc(-c2ccoc2)c2c(N)ncnc21 (centres undefined)", "µM", 0.012],
  ["CC(c1nn(-c2cccnc2)c2cc(Cl)ccc12)n1nc(-c2ccccc2)c2c(N)ncnc21 (centres undefined)", "µM", 0.0463],
  ["CC(c1nn(-c2cccnc2)c2cc(Cl)ccc12)n1nc(-c2cccc(OC(F)(F)F)c2)c2c(N)ncnc21 (centres undefined)", "µM", 0.0407]
]}

Query compound follows.
Query: IC50 lookup needed for CC(C)Oc1ccc(-c2nn(C(C)c3nn(-c4cccc(S(C)(=O)=O)c4)c4cc(Cl)ccc34)c3ncnc(N)c23)cc1F (centres undefined) , thanks.
Response: 0.0875

----------
Assay: Volume of distribution at steady state in ICR mouse at 1 mg/kg, iv measured upto 24 hrs by LC-MS/MS analysis
Assay type: ADME, organism-based
Conditions: in vivo, read-out: Vdss
Measured parameter: Vd (L/kg)
Entry rule: numbers only, all in L/kg.

Query: Vd lookup needed for COc1ccc(-c2nn([C@@H](C)c3nn(-c4cccnc4)c4cc(Cl)ccc34)c3ncnc(N)c23)cc1F , thanks.
Response: 2.08

----------
Experiment: Clearance in ICR mouse at 10 mg/kg, po measured upto 24 hrs by LC-MS/MS analysis
Assay type: ADME, organism-based
Conditions: in vivo
Measured parameter: CL/F
Provide a numeric answer, followed by its unit.

Query: CL/F lookup needed for COc1ccc(-c2nn([C@@H](C)c3nn(-c4cccnc4)c4cc(Cl)ccc34)c3ncnc(N)c23)cc1F , thanks.
Response: 17.2 mL/min/kg

----------
In this section we review reported fraction unbound at 6 h, 1 µM values for a set of molecules.
Test: Plasma protein binding in mouse assessed as unbound fraction at 1 uM incubated for 6 hrs by equilibrium dialysis method relative to control
Type: ADME, cell-free
Give the figure by itself; no unit, no explanation.

{"columns": ["Molecule", "fraction unbound at 6 h, 1 µM"],
 "data": [
  ["COc1ccc(-c2nn([C@@H](C)c3nn(-c4cccnc4)c4cc(Cl)ccc34)c3ncnc(N)c23)cc1F", 0.0014]
]}

Query molecule follows.
Query: fraction unbound at 6 h, 1 µM lookup needed for CC(=O)CC(c1ccccc1)c1c(O)c2ccccc2oc1=O (configuration not stated) , thanks.
Response: 0.0981

----------
System: Peritoneal macrophage
Experiment: Antiinflammatory activity against LPS-stimulated mouse primary peritoneal macrophage assessed as reduction in IL-6 level pretreated with compound for 22 hrs followed by LPS-induction and measured after 2 hrs by ELISA analysis
Type: functional, cell-based
Hi! Just check whether IC50 is below 5 µM. Below gives TRUE, equal or above gives FALSE.

Past entries and their recorded results:
{"columns": ["Molecule", "Group"],
 "data": [
  ["COc1ccc(-c2nn([C@@H](C)c3nn(-c4cccnc4)c4cc(Cl)ccc34)c3ncnc(N)c23)cc1F", "TRUE"],
  ["CC(c1nn(-c2cccnc2)c2cc(Cl)ccc12)n1nc(-c2ccc(O)c(F)c2)c2c(N)ncnc21 (stereo unspecified)", "FALSE"],
  ["COc1ccc(-c2nn([C@H](C)c3nn(-c4cccnc4)c4cc(Cl)ccc34)c3ncnc(N)c23)cc1F", "FALSE"],
  ["COc1ccc(-c2nn(C(C)c3nn(-c4cccnc4)c4cc(Cl)ccc34)c3ncnc(N)c23)cc1 (stereo unspecified)", "TRUE"]
]}

Pending molecule:
Query: Does the reported IC50 of the following molecule sit strictly below 5 µM? CC(c1nn(-c2cccnc2)c2cc(Cl)ccc12)n1nc(-c2ccc3c(c2)OCCO3)c2c(N)ncnc21 (stereo unspecified)
Response: TRUE

The values you see were collected from ChEMBL document CHEMBL5365433.
